Molecular target: Poly [ADP-ribose] polymerase 1 (Homo sapiens, UniProt P09874)
Sequence (P09874 whole entry): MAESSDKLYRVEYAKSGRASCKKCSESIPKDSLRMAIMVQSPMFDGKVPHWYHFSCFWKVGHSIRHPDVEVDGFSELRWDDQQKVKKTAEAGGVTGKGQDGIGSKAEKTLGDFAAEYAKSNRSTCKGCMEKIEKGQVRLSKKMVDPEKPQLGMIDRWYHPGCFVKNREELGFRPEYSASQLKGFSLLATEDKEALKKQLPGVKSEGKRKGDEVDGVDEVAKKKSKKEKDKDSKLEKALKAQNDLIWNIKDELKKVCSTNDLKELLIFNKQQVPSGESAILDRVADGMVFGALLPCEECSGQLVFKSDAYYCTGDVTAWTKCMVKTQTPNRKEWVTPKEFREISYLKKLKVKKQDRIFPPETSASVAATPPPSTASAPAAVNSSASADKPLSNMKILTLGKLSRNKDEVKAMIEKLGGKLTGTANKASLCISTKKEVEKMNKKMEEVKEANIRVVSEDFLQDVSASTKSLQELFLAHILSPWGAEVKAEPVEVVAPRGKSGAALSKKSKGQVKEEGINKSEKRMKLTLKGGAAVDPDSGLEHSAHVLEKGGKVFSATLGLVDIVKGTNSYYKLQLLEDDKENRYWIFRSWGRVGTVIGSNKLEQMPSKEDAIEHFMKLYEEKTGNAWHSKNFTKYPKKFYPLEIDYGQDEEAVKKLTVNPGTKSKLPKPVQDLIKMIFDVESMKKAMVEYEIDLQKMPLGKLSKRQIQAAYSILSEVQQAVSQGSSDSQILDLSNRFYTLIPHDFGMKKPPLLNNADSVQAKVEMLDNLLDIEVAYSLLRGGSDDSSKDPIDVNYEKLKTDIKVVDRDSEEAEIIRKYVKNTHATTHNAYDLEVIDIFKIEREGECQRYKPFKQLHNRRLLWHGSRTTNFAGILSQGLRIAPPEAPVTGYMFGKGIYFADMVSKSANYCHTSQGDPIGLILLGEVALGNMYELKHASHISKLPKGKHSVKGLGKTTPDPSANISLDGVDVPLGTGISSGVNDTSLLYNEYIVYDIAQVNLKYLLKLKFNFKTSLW
Assay: Inhibition of recombinant human PARP1 using histone as substrate after 1 hr in presence of biotinylated NAD+ by ELISA
recorded-endpoint: pIC50
Give bare numbers, as −log10 of the molar value.

Nc1cc(C(F)(F)F)c(-c2nc3c(c(N4CCOCC4)n2)CCN(C(=O)c2cc(Cc4n[nH]c(=O)c5ccccc45)ccc2F)C3)cn1; 8.22

List pIC50 for every entry below, keeping the order given.
1. Nc1ncc(-c2nc3c(c(N4CCOCC4)n2)CCN(C(=O)c2cc(Cc4n[nH]c(=O)c5ccccc45)ccc2F)C3)cn1
2. Nc1ncc(-c2nc(N3CCOCC3)nc(N3CCN(C(=O)c4cc(Cc5n[nH]c(=O)c6ccccc56)ccc4F)CC3)n2)cn1

Key:
1. 8.59
2. 9.08
